I'd be grateful if you could share measured pIC50 for these entries.
Tested on: Gli-responsive luciferase reporter cells, SUFU pathway antagonism
Assay: Gli-SUFU pathway antagonists, dose response, cell-based, luciferase luminescence, uHTS hits (AID 602464)
Numbers only, as −log10 of the molar value.

See these solved cases before continuing.
| molecule | pIC50 |
| --- | --- |
| Cc1ccc(O)c(NC(=O)COc2cc(C)ccc2C)c1 | 5.48 |
| NC(=O)c1ccccc1OCC(=O)N1CCC(Cc2ccccc2)CC1 | 5.25 |
| CC1CCN(c2c(NCc3ccc(C(=O)N4c5ccccc5CC4C)cc3)c(=O)c2=O)CC1 (stereo unspecified) | 5.29 |
| Clc1ccc(-c2cn(-c3ccccc3)c3[n+]2CCS3)cc1 | 4.77 |
| CC[N+](CC)(CC#Cc1ccccc1)CC#Cc1ccccc1 | 5.36 |

Looking for the measured pIC50 of O=C(Nc1ccccc1)C1=C[C@@H](C2CCCCC2)C[C@@H](OCCCCO)O1 , can you help?
5.71

----------
I'd be grateful if you could share measured IC50 for these entries.
Test system: Gli-responsive luciferase reporter cells, SUFU pathway antagonism
Assay: Gli-SUFU pathway antagonists, dose response, cell-based, luciferase luminescence, uHTS hits (AID 602464)

See these solved cases before continuing.
| molecule | IC50 |
| --- | --- |
| O=S(=O)(c1ccc2c(c1)nc(COc1ccc(Cl)cc1)n2CC1CCCO1)N1CCOCC1 (stereo not drawn) | 3.85 µM |
| Cc1ccc(-c2c[n+](Cc3ccc(Cl)c(Cl)c3)c3n2CCC3)cc1 | 2.79 µM |
| Cc1nc2ccccc2n1Cc1ccc(Br)cc1 | 4.73 µM |
| CCCCCCCNC1=CC(=O)CC(c2ccccc2)C1 (stereo not drawn) | 8.04 µM |
| C=CCn1c(O)c(N=NC(=S)Nc2cccc(C)c2)c2ccccc21 | 8.58 µM |
| CC(Sc1nc2ccccc2c(=O)n1C)C(=O)N(C)C1CCCCC1 (stereo not drawn) | 3.99 µM |

List the reported IC50 of each molecule below.
1. CC(C)Cc1ccc(C(C)C(=O)Nc2cccnc2)cc1 (stereo not drawn)
2. Cc1nc2cc(N3CCN(C)CC3)c(NC(=O)Cc3ccccc3)cc2c(=O)n1Cc1ccccc1

13 µM
12.3 µM

----------
Test system: Gli-responsive luciferase reporter cells, SUFU pathway antagonism
Assay: Gli-SUFU pathway antagonists, dose response, cell-based, luciferase luminescence, uHTS hits (AID 602464); in the data active means IC50 below about 20 µM; inactive means the rest
Your answer must be one of the following: active, inactive

Check out these entries, answers already filled in.
| compound | class |
| --- | --- |
| CC(=O)c1cn(CCOc2ccccc2C)c2ccccc12 | active |
| CC(Sc1nc2ccccc2c(=O)n1C)C(=O)NC1CCCCC1C (configuration not stated) | active |
| CC(C)CC(NC(=O)CCCNC(=O)CCC(=O)OC1O[C@H]2OC3(C)CC[C@H]4[C@H](C)CCC(C1C)C24OO3)C(=O)O (some centres not stated) | active |

Kindly review the next compound as well.
What is the recorded call for this compound in the test? COc1ccc(Cn2c(-c3ccc(Cl)cc3)c[n+]3ccccc23)cc1
active

----------
System: Gli-responsive luciferase reporter cells, SUFU pathway antagonism
Experiment: Gli-SUFU pathway antagonists, dose response, cell-based, luciferase luminescence, uHTS hits (AID 602464)
The source made the active and inactive calls. Rule as the data show it: active = IC50 below about 20 µM; inactive = the rest.
Your answer must be one of the following: label 1 (active), label 0 (inactive)

Check out these entries, answers already filled in.
| compound | class |
| --- | --- |
| CCOc1ccc(-c2nc(CSCC(=O)NC3CC3)c(C)o2)cc1 | label 1 |
| c1ccc(-c2cn(-c3ccccc3)c3[n+]2CCS3)cc1 | label 1 |
| COc1ccc(N2CCN(c3ncnc4c3[nH]c3ccccc34)CC2)cc1 | label 1 |
| CC(=O)Nc1cccc(OCC(=O)/C=C2\N(C)c3ccccc3C2(C)C)c1 | label 1 |
| C/C(=N\Nc1ccc(Cl)nn1)c1ccccc1O | label 0 |

What is the recorded call for this compound in the test? O=C(N/N=C/c1cc2ccccc2nc1Cl)[C@H]1C[C@@H]1c1ccccc1
label 1

What is the recorded call for this compound in the test? CCC(=O)c1ccc(OCC(O)Cn2c(C)nc3ccccc32)cc1 (stereo not given)
label 1

What is the recorded call for this compound in the test? O=C(Cn1cnc2ccccc21)Nc1cccc(S(=O)(=O)N2CCCC2)c1
label 1

What is the recorded call for this compound in the test? CCc1nc(N)nc(N)c1-c1ccc(N(C)Cc2ccccc2)c([N+](=O)[O-])c1
label 1

What is the recorded call for this compound in the test? O=C(Nc1nc(-c2cccs2)cs1)c1cccc(S(=O)(=O)N2CCCCCC2)c1
label 1

What is the recorded call for this compound in the test? CCOC(=O)CC1CCCCN1C(=O)c1cc(COc2cccc3cnccc23)on1 (stereo not given)
label 1

What is the recorded call for this compound in the test? COc1ccc(-n2cc(-c3ccc(OC(F)F)cc3)[n+]3c2CCCCC3)cc1
label 1

What is the recorded call for this compound in the test? CC(C)(C)C1CCC(OC(=O)C[N+]2(C)CCCCC2)CC1 (stereo not given)
label 0

What is the recorded call for this compound in the test? Cc1c(CCOC(=O)C23CC4CC(CC(C)(C4)C2)C3)sc[n+]1Cc1ccccc1
label 0

What is the recorded call for this compound in the test? Cc1cc(/C=C2/SC(=S)N(c3ccc([N+](=O)[O-])cc3)C2=O)c(C)n1-c1cccnc1
label 1

What is the recorded call for this compound in the test? Cn1nc(CC(=O)NCc2ccc(C(F)(F)F)cc2)c2ccccc2c1=O
label 1

What is the recorded call for this compound in the test? COc1ccccc1-n1c(-c2ccccc2)c[n+]2c1CCc1ccccc1-2
label 1

What is the recorded call for this compound in the test? CCOc1ccc(NS(=O)(=O)c2cccc(C(=O)N3CCN(C/C=C/c4ccccc4)CC3)c2)cc1
label 0

What is the recorded call for this compound in the test? COc1ccccc1CCNC(=O)c1cc(-c2ccncc2)nc2ccc(Br)cc12
label 0

What is the recorded call for this compound in the test? c1ccc(-c2c[n+]3c(n2-c2ccccc2)SCC3)cc1
label 1

What is the recorded call for this compound in the test? C[C@@H]1COC(=O)[C@@H](NC(=O)OCC2c3ccccc3-c3ccccc32)C/C=C\C[C@@H](CC(=O)N(CCO)Cc2ccccc2)C(=O)N1
label 0

What is the recorded call for this compound in the test? O=C(Nc1cc2c3c(c1)C1CCCC1CN3CC1CCCC21)c1ccc([N+](=O)[O-])cc1 (stereo not given)
label 1

What is the recorded call for this compound in the test? COc1ccc(C(C(=O)NC2CCCCC2)N(C(=O)CCl)c2ccc(Cl)cc2)cc1 (stereo not given)
label 1
